Where do these numbers come from? They come from ChEMBL document CHEMBL1140659.

Field: log10 of CC50. Provide a value for each of the compounds that follow.
- ASSAY INFO: Cytotoxicity against human HEp2 cells
- Format: cell-based, HEp-2
Response schema: value (number) is log10 of CC50 in units of µM.

Give measured log10 of CC50 for every item shown.
1. CC(C)CCn1c(Cn2c(=O)n(C(C)C)c3ccccc32)nc2cc(-c3nn[nH]n3)ccc21
2. CC(C)CCn1c(Cn2c(=O)n(CC(=O)OC(C)(C)C)c3ccccc32)nc2cc(C#N)ccc21
3. CC(C)CCn1c(Cn2c(=O)n(C(C)C)c3ccccc32)nc2cccc(N=[N+]=[N-])c21
4. CC(C)CCn1c(Cn2c(=O)n(C(C)C)c3ccccc32)nc2cc(C(C)(C)N)ccc21
5. CC(C)CCn1c(Cn2c(=O)n(C(C)C)c3ccccc32)nc2c(CN)cccc21
6. CC(C)CCn1c(Cn2c(=O)n(C(C)C)c3ccccc32)nc2c(CCN)cccc21

[0.30, 1.51, 1.76, 0.51, 0.85, 0.59]
